Exercise: for every item that follows, state its recorded IC50.
# Target System: human SGLT2 (Homo sapiens (Human))
# Sequence (P31639 whole entry): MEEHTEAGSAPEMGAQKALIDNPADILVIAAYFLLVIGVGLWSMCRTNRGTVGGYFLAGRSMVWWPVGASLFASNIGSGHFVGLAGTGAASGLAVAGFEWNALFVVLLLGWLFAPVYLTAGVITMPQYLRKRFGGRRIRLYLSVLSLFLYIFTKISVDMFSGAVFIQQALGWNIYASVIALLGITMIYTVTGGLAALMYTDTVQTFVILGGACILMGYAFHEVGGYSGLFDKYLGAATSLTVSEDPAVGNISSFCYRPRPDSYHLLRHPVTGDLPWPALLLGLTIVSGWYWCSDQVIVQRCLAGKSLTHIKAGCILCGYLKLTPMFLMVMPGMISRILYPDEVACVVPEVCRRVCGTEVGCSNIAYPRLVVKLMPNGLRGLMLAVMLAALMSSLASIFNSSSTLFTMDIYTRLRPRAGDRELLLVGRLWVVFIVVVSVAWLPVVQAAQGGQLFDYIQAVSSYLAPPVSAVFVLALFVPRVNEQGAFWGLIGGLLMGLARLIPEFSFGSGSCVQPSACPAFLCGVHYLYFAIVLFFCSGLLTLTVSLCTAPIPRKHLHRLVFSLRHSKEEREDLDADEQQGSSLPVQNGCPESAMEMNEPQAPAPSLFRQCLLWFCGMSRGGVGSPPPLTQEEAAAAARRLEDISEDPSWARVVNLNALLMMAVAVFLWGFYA
# Procedure Summary: Uptake assay of [14C]-AMG in Flp-In CHO cells stably expressing human SGLT2;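 also: uptake in Na+ containing KRH buffer with compounds added in 1% DMSO, radioactivity of lysed cells read by scintillation counting, SGLT1 tested the same way in matching Flp-In CHO cells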
# Format: cell-based
# Condition Description: [14C]-AMG uptake, Flp-In CHO cells expressing human SGLT2, 1 hour at 37° C., n = 1-4
Give bare numbers, in nM.

Solved cases (3 shown):
Structure	IC50, nM
OC[C@H]1O[C@@H](c2ccc(Cl)c(Cc3ccc(OCC4CNC4)cc3)c2)[C@H](O)[C@@H](O)[C@@H]1O	8.4
CN1CC(COc2ccc(Cc3cc([C@@H]4O[C@H](CO)[C@@H](O)[C@H](O)[C@H]4O)ccc3Cl)cc2)C1	23.6
OC[C@H]1O[C@@H](c2ccc(Cl)c(Cc3ccc(OCCC4CSC4)cc3)c2)[C@H](O)[C@@H](O)[C@@H]1O	7.4

Provide each entry's IC50 from the list below.
1. OC[C@H]1O[C@@H](c2ccc(Cl)c(Cc3ccc(CCC4COC4)cc3)c2)[C@H](O)[C@@H](O)[C@@H]1O
2. OC[C@H]1O[C@@H](c2ccc(Cl)c(Cc3ccc(OCCCC4(F)COC4)cc3)c2)[C@H](O)[C@@H](O)[C@@H]1O
3. OC[C@H]1O[C@@H](c2ccc(Cl)c(Cc3ccc(OCC4(CF)COC4)cc3)c2)[C@H](O)[C@@H](O)[C@@H]1O
4. CCOc1ccc(Cc2cc([C@@H]3O[C@H](CO)[C@@H](O)[C@H](O)[C@H]3O)c(OCC3CNC3)cc2Cl)cc1
5. CC(C)(C)OC(=O)N1CC(COc2ccc(Cc3cc([C@@H]4O[C@H](CO)[C@@H](O)[C@H](O)[C@H]4O)ccc3Cl)cc2)C1

1. 8.5
2. 1.1
3. 3.7
4. 69.4
5. 28.7

====

# Target System: human SGLT1 (Homo sapiens (Human))
# Sequence (P13866 whole entry): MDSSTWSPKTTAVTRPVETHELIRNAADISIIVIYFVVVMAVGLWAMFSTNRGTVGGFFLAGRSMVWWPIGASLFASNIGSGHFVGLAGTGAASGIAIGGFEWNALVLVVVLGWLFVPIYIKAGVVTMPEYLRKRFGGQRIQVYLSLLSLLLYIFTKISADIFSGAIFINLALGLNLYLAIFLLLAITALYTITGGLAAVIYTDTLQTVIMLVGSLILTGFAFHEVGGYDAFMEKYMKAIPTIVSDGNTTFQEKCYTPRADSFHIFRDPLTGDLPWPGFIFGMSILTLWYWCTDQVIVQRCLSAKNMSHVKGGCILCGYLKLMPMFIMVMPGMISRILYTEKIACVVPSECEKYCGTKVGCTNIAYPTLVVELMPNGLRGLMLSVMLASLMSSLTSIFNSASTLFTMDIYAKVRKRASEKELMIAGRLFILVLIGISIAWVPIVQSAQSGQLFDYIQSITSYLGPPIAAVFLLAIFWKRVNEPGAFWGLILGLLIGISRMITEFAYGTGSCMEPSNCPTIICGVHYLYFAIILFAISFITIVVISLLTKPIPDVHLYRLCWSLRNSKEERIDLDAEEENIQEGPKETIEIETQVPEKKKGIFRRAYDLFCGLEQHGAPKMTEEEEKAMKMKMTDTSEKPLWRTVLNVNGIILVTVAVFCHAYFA
# Procedure Summary: Uptake assay of [14C]-AMG in Flp-In CHO cells stably expressing human SGLT1;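 also: uptake run in sodium-containing KRH buffer with compounds added in DMSO (1% final), cell radioactivity read by scintillation counting after lysis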
# Format: cell-based
# Condition Description: [14C]-AMG uptake, Flp-In CHO cells expressing human SGLT1, 1 hour at 37° C., n = 1-4
Definition: the class of an entry is the range in bottom range = under 1000 nM, center range = from 1000 nM up to 2000 nM, top range = 2000 nM and over that contains its IC50.

A selection of reference data follows.
Molecule	Class Label
CC(C)(C)OC(=O)N1CC(COc2ccc(Cc3cc([C@@H]4O[C@H](CO)[C@@H](O)[C@H](O)[C@H]4O)ccc3Cl)cc2)C1	top range
OC[C@H]1O[C@@H](c2ccc(Cl)c(Cc3ccc(CC4COC4)cc3)c2)[C@H](O)[C@@H](O)[C@@H]1O	top range
OC[C@H]1O[C@@H](c2ccc(Cl)c(Cc3ccc(OCCCC4COC4)cc3)c2)[C@H](O)[C@@H](O)[C@@H]1O	top range
CCOc1ccc(Cc2cc([C@@H]3O[C@H](CO)[C@@H](O)[C@H](O)[C@H]3O)c(OCCCC3(F)COC3)cc2Cl)cc1	top range
OC[C@H]1O[C@@H](c2ccc(Cl)c(Cc3ccc(OCC4CN(C5COC5)C4)cc3)c2)[C@H](O)[C@@H](O)[C@@H]1O	top range
CCOc1ccc(Cc2cc([C@@H]3O[C@H](CO)[C@@H](O)[C@H](O)[C@H]3O)c(OCC3(F)COC3)cc2Cl)cc1	top range
OC[C@H]1O[C@@H](c2ccc(Cl)c(Cc3ccc(OCC4CCO4)cc3)c2)[C@H](O)[C@@H](O)[C@@H]1O (single isomer, unassigned) [Compound 2]	center range
OC[C@H]1O[C@@H](c2ccc(Cl)c(Cc3ccc(CC4(F)COC4)cc3)c2)[C@H](O)[C@@H](O)[C@@H]1O	top range

Band for CC(=O)N1CC(COc2ccc(Cc3cc([C@@H]4O[C@H](CO)[C@@H](O)[C@H](O)[C@H]4O)ccc3Cl)cc2)C1 ?
bottom range

// bin(item) where item = OC[C@H]1O[C@@H](c2ccc(Cl)c(Cc3ccc(OCCC4(F)COC4)cc3)c2)[C@H](O)[C@@H](O)[C@@H]1O
center range
